Tested on: BT-549 breast
ASSAY_REMARKS: NCI-60 one-dose screen, 48 h (100 = growth as untreated, 0 = no growth, -100 = all killed)
RUN_CONDITIONS: 10 µM unless noted
Protocol: Growth inhibition of the BT-549 human tumor cell line is measured as a screen for anti-cancer activity. Cells are grown in 96 well plates and exposed to the test compound for 48 hours. Compounds are tested at a single concentration, which is 10^-5 M for most compounds. The reported endpoint is percent growth (GI% or GIPRCNT), where numbers from 0 - 100% represent growth inhibition, and numbers from -100% - 0 represent cell death. For example, a value of 40 represents 60% growth inhibition. […]
About 83,000 compounds went through this panel and 20% of them were active in at least one assay; those are over-represented in the sample as a whole.
hey, just use 1.0 if measured growth is less than 70%, otherwise 0.0

INSERT INTO assay_data (molecule, answer_label) VALUES
  ('O=C(c1ccccc1)N1N=C(c2ccc(-n3ccc(C(F)(F)F)n3)c(F)c2)CC1c1ccc[nH]1 (centres undefined)', 0.0),
  ('N#Cc1c(NC(=O)NCc2ccccc2)sc2c1CCCC2', 1.0),
  ('Cc1cnc(C(=O)Nc2nc3ccc(S(=O)(=O)Nc4ccc(C(C)(C)C)cc4)cc3[nH]2)cn1', 1.0),
  ('O=[N+]([O-])c1ccc(N=Nc2cc(S(=O)(=O)O)c3cccc(S(=O)(=O)O)c3c2O)cc1', 0.0),
  ('COc1ccc(C(=O)c2cc(OC)c(OC)c(OC)c2)cc1O', 1.0),
  ('Cn1nc(CC#N)c2c(=N)n(N)cnc21', 0.0),
  ('COc1ccc(-c2nc3sccn3c2/C=C/C(=O)c2ccc3c(c2)OCO3)cc1', 0.0),
  ('NS(=O)(=O)c1ccc(Cn2c(SCC(=O)N/N=C/c3ccccc3O)nc3ccccc3c2=O)cc1', 1.0),
  ('O=S(=O)(NCCNc1nccc(-c2c(-c3cccc(O)c3)nc3occn23)n1)c1ccc(C(F)(F)F)cc1', 0.0),
  ('Oc1ccc(C2c3ccccc3Oc3ccccc32)c2cccnc12', 1.0),
  ('CCCCC/C=C/C(C)=C/C1CC(C)C/C=C/CCC(O)C(OC(N)=O)CCC(C)CC(O)C(C)C(=O)O1 (centres undefined)', 0.0),
  ('C=C1C(=O)O[C@H]2[C@H]1CC/C(CNS(=O)(=O)c1cccc3ccccc13)=C\CC[C@@]1(C)O[C@@H]21', 1.0),
  ('Cc1cccc(NC(=O)Nc2ccc(-c3ccc4c(c3)NC(=O)/C4=C\c3ccc[nH]3)cc2)c1', 0.0);

---

Test system: MOLT-4 leukemia
ASSAY_REMARKS: NCI-60 one-dose screen, 48 h
RUN_CONDITIONS: 10 µM unless noted
Compounds without any hit were thinned out: in the full panel of roughly 83,000, 20% have a hit. Active and inactive are the calls of the source. The calls were made as follows: active = growth percent below 10; inactive = the rest.
Outcome codes: active, inactive

INSERT INTO assay_data (compound, answer_label) VALUES
  ('CCN(CC)c1ccc(C(=O)c2ccccc2)cc1', 'inactive'),
  ('COc1cc2c(=O)n(CCN)c3c4cc5c(cc4ccc3c2cc1OC)OCO5', 'active'),
  ('CCCCCN1C=C/C(=C\C(=O)N2CCCc3ccccc32)c2ccccc21', 'inactive'),
  ('COc1ccc(C/C(C)=C(/c2ccc(OCCCN(C)C)cc2)c2ccc(OC(C)=O)cc2)cc1', 'inactive'),
  ('CCC(=O)Oc1ccc(/C(=C(\C)c2ccccc2)c2ccc(OCCN3CCCCC3)cc2)cc1', 'inactive'),
  ('CCOC(=O)C1=C(CCl)NC(=O)NC1c1ccc2c(c1)OCO2 (centres undefined)', 'inactive'),
  ('CC[C@]12C=CCN3CC[C@@]4(c5cc(NC(=O)CCC(=O)O[C@H]6CC[C@H]7[C@@H]8CCC9=CC(=O)CC[C@@H]9[C@H]8CC[C@]67C)c(OC)cc5N(C)[C@H]4[C@@](O)(C(=O)OC)[C@@H]1OC(C)=O)[C@@H]32', 'inactive'),
  ('Cc1ccc(-c2[nH][nH]c(=O)c2-c2nc3ccccc3s2)cc1', 'inactive'),
  ('Oc1c(Cl)cc(Cl)c(Cl)c1CNCCNCc1c(O)c(Cl)cc(Cl)c1Cl', 'inactive'),
  ('COc1cc2c3c(c4c5ccccc5[nH]c4c2c(OC)c1OC)C(=O)N(CCN1CCOCC1)C3=O', 'active'),
  ('O=C(Nc1ccc(NC(=O)c2cc(=O)[nH]c3ccccc23)cc1)Nc1cccc(Cl)c1', 'inactive'),
  ('CCCCCCCCO/N=C\c1c2c(O)c3c(O)c(C)c4c(c3c1O)C(=O)C(C)(O/C=C\C(OC)C(C)C(OC(C)=O)C(C)C(O)C(C)C(O)C(C)/C=C\C=C(\C)C(=O)N2)O4 (centres undefined)', 'inactive'),
  ('CCc1c(Cl)nc(N)nc1Nc1ccc(C)c(C)c1', 'inactive'),
  ('O=C1c2ccccc2C(=O)c2c([N+](=O)[O-])ccc(Cl)c21', 'inactive');

---

Test system: UO-31 renal
ASSAY_REMARKS: NCI-60 one-dose screen, 48 h
RUN_CONDITIONS: 10 µM unless noted
The panel holds about 83,000 compounds, 20% with a hit somewhere; the sample as a whole holds those more often. The source made the active and inactive calls. How the source made its calls: active means growth percent below 10; inactive means the rest.
Outcome codes: True (active), False (inactive)

INSERT INTO results (molecule, test_target, answer_label) VALUES
  ('c1ccc(Cn2cnc3ccc(-c4nc(-c5ccc6c(c5)ncn6C5CCCCC5)cn5ccnc45)cc32)cc1', 'UO-31 renal', 'True'),
  ('O=C(Nc1ccccc1)Nc1ccc2cc3ccc(NC(=O)Nc4ccccc4)cc3nc2c1', 'UO-31 renal', 'False'),
  ('CC1(C)CC(=O)C2=C(C1)N(c1ccc(F)cc1F)C(N)=C(C#N)C2c1cc(Br)ccc1F (centres undefined)', 'UO-31 renal', 'False'),
  ('CCN(CC)CCn1c(=O)c2cc(OC)c(OC)cc2c2ccc3cc4c(cc3c21)OCO4', 'UO-31 renal', 'False');

---

growth for assorted molecules
Test system: NCI-H522 lung
ASSAY_REMARKS: NCI-60 one-dose screen, 48 h (100 = growth as untreated, 0 = no growth, -100 = all killed)
RUN_CONDITIONS: 10 µM unless noted
The panel holds about 83,000 compounds, 20% with a hit somewhere; the sample as a whole holds those more often. Active and inactive are the calls of the source. The calls were made as follows: active = growth percent below 10; inactive = the rest.
MEASURED_ENDPOINT: growth

INSERT INTO assay_data (molecule, test_target, endpoint_result) VALUES
  ('O=C(N/N=C/c1cc2ccccc2n2nnnc12)Nc1ccccc1', 'NCI-H522 lung', '93.6% (inactive)'),
  ('O=C(/C=C(O)/C=C/c1ccc(SC(F)(F)F)cc1)/C=C/c1ccc(SC(F)(F)F)cc1', 'NCI-H522 lung', '93.7% (inactive)'),
  ('N#CC1C(C#N)C(C(=O)c2ccc(Br)cc2)N2c3ccccc3C=CC12 (stereo not given)', 'NCI-H522 lung', '78.6% (inactive)'),
  ('COc1cc2nc(-c3ccc(Cl)cc3)cc(OCCCN3CCCC3)c2cc1OC', 'NCI-H522 lung', '38.1% (inactive)'),
  ('CCCOc1ccc(/C=N/Nc2cc(C)nc3ccc(Br)cc23)cc1', 'NCI-H522 lung', '101% (inactive)');

---

System: MALME-3M melanoma
ASSAY_REMARKS: NCI-60 one-dose screen, 48 h (100 = growth as untreated, 0 = no growth, -100 = all killed)
RUN_CONDITIONS: 10 µM unless noted
Procedure: Cells are grown in 96 well plates and exposed to the test compound for 48 hours. Compounds are tested at a single concentration, which is 10^-5 M for most compounds. The reported endpoint is percent growth (GI% or GIPRCNT), where numbers from 0 - 100% represent growth inhibition, and numbers from -100% - 0 represent cell death. For example, a value of 40 represents 60% growth inhibition. A value of 0 means no net growth occurred over the course of the experiment. […]
About 83,000 compounds went through this panel and 20% of them were active in at least one assay; those are over-represented in the sample as a whole.
growth for assorted compounds
MEASURED_ENDPOINT: growth (%)

INSERT INTO assay_data (chemical_structure, endpoint_result) VALUES
  ('CC1(C)NCCC[C@]2(C)[C@H]3CC[C@@H]4[C@H]5[C@H](C(=O)/C=C/c6ccco6)CC[C@]5(CO)CC[C@@]4(C)[C@]3(C)CC[C@@H]12', 78.7),
  ('COc1ccccc1/C=C1\Oc2cc(OCCN3CCCC3)ccc2C1=O', 104),
  ('Nc1n[nH]c2cccc(C#Cc3cccc(C(=O)Nc4cc(CN5CCOCC5)cc(C(F)(F)F)c4)c3)c12', 0.564);

---

Tested on: MALME-3M melanoma
ASSAY_REMARKS: NCI-60 one-dose screen, 48 h (100 = growth as untreated, 0 = no growth, -100 = all killed)
RUN_CONDITIONS: 10 µM unless noted
Compounds without any hit were thinned out: in the full panel of roughly 83,000, 20% have a hit.
Parameter threshold = 60%. Response is rule met when growth meets or exceeds it, else rule not met.

INSERT INTO results (compound, test_target, answer_label) VALUES
  ('COc1cc(/C=C\c2cc(OC)c(OC)c(OC)c2)cc(NC(=O)/C=C/c2cc(OC)c(OC)c(OC)c2)c1OC', 'MALME-3M melanoma', 'rule not met'),
  ('COc1ccc(C(=O)c2cc(C)c(OC)c(C)c2)c(OC)c1N(C(=O)CCl)C(=O)CCl', 'MALME-3M melanoma', 'rule not met'),
  ('CNC(=O)c1cccc(Cn2nc(C)c(NC(=O)c3ccc(COc4ccc(C(F)(F)F)cc4C)cc3)c2C)c1', 'MALME-3M melanoma', 'rule met'),
  ('COC(=O)C1=C(C(=O)ON)C2C=CC1(C(Cc1ccccc1)Nc1ccccc1)O2 (stereo not drawn)', 'MALME-3M melanoma', 'rule not met'),
  ('COc1cc(C=O)ccc1OC1OC(COC(C)=O)C(OC(C)=O)C(OC(C)=O)C1OC(C)=O (stereo not drawn)', 'MALME-3M melanoma', 'rule met'),
  ('COc1ccc(N2CCN(c3ccc(NC4=C(Cl)C(=O)c5ncccc5C4=O)cc3)CC2)cc1', 'MALME-3M melanoma', 'rule not met'),
  ('Cc1cccc(NC(=O)Nc2ccc(-n3cnc4cc(-c5ccc(O)cc5)ccc43)cc2)c1', 'MALME-3M melanoma', 'rule not met');
